The reported measurements were obtained from PubChem BioAssay.

ASSAY DETAILS: small-molecule microarray binders of probe aCHRDL2, primary screen, biochemical, biotinylated probe, 635/667 nm fluorescence (AID 1100)
MEASUREMENT CONTEXT: higher = more signal
Attribute: composite z-score

{"columns": ["GIVEN SMILES", "composite z-score"],
 "data": [
  ["COCCCNC(=O)[C@@H]1c2ccccc2C(=O)N(C2Cc3ccccc3C2)[C@H]1c1ccc(CO)cc1", 0.186],
  ["COCCOC(=O)N1C(=O)[C@@]2(c3cc(C#CCNC(N)=O)ccc31)[C@H](c1ccc(OCCO)cc1)N1[C@H](c3ccccc3)[C@H](c3ccccc3)OC(=O)[C@H]1[C@@H]2C(N)=O", 0.435],
  ["COC(=O)[C@@]1(Cc2ccc(F)cc2)[C@H]2c3cc(C(=O)N(C)C)n(Cc4c(CO)[nH]cc(C)c4=O)c3C[C@H]2CN1C(=O)c1ccccc1", 0.721],
  ["C=C[C@H](C)[C@H](OC(=O)Nc1ccc(OC)cc1)c1ccc(OCCO)cc1", 0.931]
]}
